test system: THP-1; assay: THP-1 cell loss relative to DMSO control; higher = more host cell loss (toxicity); extreme values may be limits of the assay; conditions: 10 µM; 4 days; infection: M. tuberculosis H37Rv
Counter-ions that a name gives are not always drawn.
THP-1 cell loss for assorted compounds
Numbers only; they are read as %.

The examples below pair each entry with its known result.
CCOc1cc(N2CCC(O)CC2)ccc1Nc1ncc2c(n1)N(C)c1ccccc1C(=O)N2C = 100
CCc1cncnc1N1CCN(Cc2nc3ccc(C(F)(F)F)cc3[nH]2)CC1 = 92.6
N#CC(c1ccnc(NCCc2cccnc2)n1)c1nc2ccccc2s1 (configuration not stated) = 100
Cc1csc(-c2nnc(Nc3ccc(Oc4ncccc4-c4ccnc(N)n4)cc3)c3ccccc23)c1 = 62.4
Cn1cncc1[C@@](N)(c1ccc(Cl)cc1)c1ccc2c(c1)c(-c1cccc(Cl)c1)cc(=O)n2C = 29.6
NC(=O)c1ccc2nc(-c3ccc(Oc4ccc(Cl)cc4)cc3)[nH]c2c1 = 48.8
CS(=O)(=O)CCNCc1nc(-c2ccc3ncnc(Nc4ccc(OCc5cccc(F)c5)c(Cl)c4)c3c2)cs1 = 37.5
Cc1ccc(NC(=O)c2ccc(CN3CCN(C)CC3)cc2)cc1Nc1nc(-c2cccnc2)cs1 [Masitinib mesylate] = 62.9

Short answer please: THP-1 cell loss, THP-1, entry Cn1c(=O)n(-c2ccc(C(C)(C)C#N)cc2)c2c3cc(-c4cnc5ccccc5c4)ccc3ncc21 36.6

And the next one, COc1cc2c(cc1OC)-c1[nH]nc(Nc3cccc(F)c3)c1C2 ? 27.5

And the next one, Cc1cc(Nc2nc(N[C@@H](C)c3ncc(F)cn3)ncc2Cl)[nH]n1 ? 4.08

And the next one, CN(C)Cc1cccc(N=C(c2ccccc2)c2c(O)[nH]c3cc(C(=O)N(C)C)ccc23)c1 ? 23.9

And the next one, CO[C@H]1C[C@@H]2CC[C@@H](C)[C@@](O)(O2)C(=O)C(=O)N2CCCC[C@H]2C(=O)O[C@H]([C@H](C)C[C@@H]2CC[C@@H](OCCO)[C@H](OC)C2)CC(=O)[C@H](C)/C=C(\C)[C@@H](O)[C@@H](OC)C(=O)[C@H](C)C[C@H](C)/C=C/C=C/C=C/1C ? 22

And the next one, O=C(Nc1c[nH]nc1-c1nc2ccc(CN3CCOCC3)cc2[nH]1)NC1CC1 ? 100

And the next one, Cc1cccc(-c2[nH]c(C(C)(C)C)nc2-c2ccc3c(c2)OCO3)n1 ? 74

And the next one, CCCS(=O)(=O)Nc1ccc(F)c(C(=O)c2c[nH]c3ncc(-c4ccc(Cl)cc4)cc23)c1F ? 100

And the next one, NC(=O)Nc1cc(-c2cccc(F)c2)sc1C(=O)N[C@H]1CCCNC1 [AZD-7762 hydrochloride] ? 100

====

system: THP-1 macrophages infected with Mycobacterium tuberculosis H37Rv; assay: intracellular M.tb growth inhibition relative to DMSO (0) and 4 uM bedaquiline (100); higher = stronger inhibition of intracellular bacterial growth; settings: 10 µM; 4 days
Structures can show the parent of a compound that is named as a salt.
outcome.measure: intracellular M.tb growth inhibition (%)
Numbers only; they are read as %.

The examples below pair each entry with its known result.
O=C(C=Cc1ccccc1)NC(NC(=S)Nc1ccc(Cl)cc1)C(Cl)(Cl)Cl (stereo not given) = 12.9
CC(C)c1cnn2c(NCc3ccccc3)cc(NCCCCCCN)nc12 [BS-181 hydrochloride] = 3.6
CCN(CC)CCCCN1c2ccccc2Oc2ccc(Cl)cc21 [10-DEBC hydrochloride] = 123

I would be grateful if you could share the reported intracellular M.tb growth inhibition for O=C1NC(=O)[C@@H](c2cn3c4c(cccc24)CCC3)[C@@H]1c1c[nH]c2ccccc12 . -118

And the next one, O=C1NC(=O)/C(=C/c2ccc3c(c2)OC(F)(F)O3)S1 ? 42.5

And the next one, CC[C@H](Nc1ncnc2[nH]cnc12)c1nc2cccc(F)c2c(=O)n1-c1ccccc1 ? -236

And the next one, C[C@@H](Oc1cc(-n2cnc3ccc(CN4CCN(C)CC4)cc32)sc1C(N)=O)c1ccccc1C(F)(F)F ? -31.9

====

test system: THP-1; test: THP-1 cell loss relative to DMSO control; higher = more host cell loss (toxicity); extreme values may be limits of the assay; conditions: 10 µM; 4 days; infection: M. tuberculosis H37Rv
THP-1 cell loss for assorted molecules
I'd appreciate it if you wrote the number followed by its unit.

The examples below pair each entry with its known result.
Cc1[nH]c(/C=C2\C(=O)Nc3cc(-c4ccccc4)ccc32)c(C)c1CCC(=O)O = 6.62%
Cc1cc(C(C)Nc2ccccc2)c2nc(N3CCOCC3)cc(=O)n2c1 (stereo not drawn) = 10.5%

I would be grateful if you could share the reported THP-1 cell loss for Nc1cc(N)c(N)cc1N . 11.9%

And the next one, O=C1NC(=O)[C@@H](c2cn3c4c(cccc24)CCC3)[C@@H]1c1c[nH]c2ccccc12 ? 43.4%

====

THP-1 cell loss for assorted molecules
test system: THP-1; assay: THP-1 cell loss relative to DMSO control; higher = more host cell loss (toxicity); extreme values may be limits of the assay; details: 10 µM; 4 days; infection: M. tuberculosis H37Rv
Counter-ions that a name gives are not always drawn.
Numbers only; they are read as %.

The examples below pair each entry with its known result.
Cc1cc(C(=O)NOCCO)c(Nc2ccc(I)cc2F)n(C)c1=O = 100
Cc1ccc(NC(=O)c2ccc(CN3CCN(C)CC3)cc2)cc1Nc1nccc(-c2cccnc2)n1 [Imatinib Mesylate] = 9.14
Cc1[nH]c(/C=C2\C(=O)Nc3ccc(S(=O)(=O)Cc4c(Cl)cccc4Cl)cc32)c(C)c1C(=O)N1CCC[C@@H]1CN1CCCC1 = 19.1

I would be grateful if you could share the reported THP-1 cell loss for Cc1cc(Nc2cc(N3CCN(C)CC3)nc(Sc3ccc(NC(=O)C4CC4)cc3)n2)n[nH]1 . 22.3

And the next one, COc1cccc(-c2cc(=O)c3ccccc3o2)c1N ? 26.7

And the next one, Oc1ccc(-c2nc(-c3ccc(F)cc3)c(-c3ccncc3)[nH]2)cc1 ? 8.45

And the next one, CN(C)CCOc1cc(-c2cn[nH]c2)ccc1NC(=O)C1COc2ccccc2O1 (centres undefined) ? 0

And the next one, COc1ccc(-c2cc3nccn3c(Nc3ncccc3C(N)=O)n2)cc1OC [BAY 61-3606 hydrochloride] ? 100

====

intracellular M.tb growth inhibition for assorted compounds
tested on: THP-1 macrophages infected with Mycobacterium tuberculosis H37Rv; assay: intracellular M.tb growth inhibition relative to DMSO (0) and 4 uM bedaquiline (100); higher = stronger inhibition of intracellular bacterial growth; details: 10 µM; 4 days
Numbers only; they are read as %.

The examples below pair each entry with its known result.
COc1cc2ncnc(Nc3ccc(Oc4ccccc4)cc3)c2cc1OC = 41.9
CCN(CC)CCCCNc1ncc2cc(-c3cc(OC)cc(OC)c3)c(NC(=O)NC(C)(C)C)nc2n1 = 34.4
Cc1cc(Nc2nc(N[C@@H](C)c3ncc(F)cn3)ncc2Cl)[nH]n1 = -234

I would be grateful if you could share the reported intracellular M.tb growth inhibition for Oc1c2ccccc2c2c3c(cccc13)N=N2 . 12.9

And the next one, CC(C)n1nc(-c2cc3cc(O)ccc3[nH]2)c2c(N)ncnc21 ? 14.1

And the next one, COc1cc(C[C@H]2C(=O)OC[C@@H]2Cc2ccc(OC)c(OC)c2)ccc1O ? 46

And the next one, N#C/C(=C\c1ccc(O)c(O)c1)C(=O)NCc1ccccc1 ? 9.47

And the next one, O=c1c(O)c(-c2ccc(O)c(O)c2)oc2cc(O)cc(O)c12 ? -5.54

And the next one, Nc1nccc(Oc2ccc(NC(=O)c3c[nH]cc(-c4ccc(F)cc4)c3=O)cc2F)c1Cl ? 37

And the next one, COc1cc(Nc2ncc(F)c(Nc3ccc4c(n3)N(COP(=O)(O)O)C(=O)C(C)(C)O4)n2)cc(OC)c1OC ? 11

====

tested on: THP-1; assay: THP-1 cell loss relative to DMSO control; higher = more host cell loss (toxicity); extreme values may be limits of the assay; settings: 10 µM; 4 days; infection: M. tuberculosis H37Rv
Where a name gives a salt, the structure may show the parent alone.
# if value of THP-1 cell loss reaches 40%, tag TRUE; if it stays below, tag FALSE

Example results:
COc1ccc(S(=O)(=O)N(C(C)=O)c2ccccc2/C=C/c2cc[n+]([O-])cc2)cc1 = TRUE
CC[C@H](CO)Nc1nc(NCc2ccccc2)c2ncn(C(C)C)c2n1 = TRUE
C/C(=N\N=C(N)N)c1ccc(NC(=O)c2cc3cccc([N+](=O)[O-])c3[nH]2)cc1 = FALSE
CC(C)c1cnn2c(NCc3ccccc3)cc(NCCCCCCN)nc12 [BS-181 hydrochloride] = TRUE
N#CCc1ccc(Nc2nc(Nc3cc(C4CCC4)[nH]n3)c3ccccc3n2)cc1 = TRUE
Cc1ccccc1-n1c(Cn2nc(-c3cccc(O)c3)c3c(N)ncnc32)nc2cccc(C)c2c1=O = TRUE
Cc1nc(Nc2ncc(C(=O)Nc3c(C)cccc3Cl)s2)cc(N2CCN(CCO)CC2)n1 = FALSE
C=CC[C@@H]1/C=C(\C)C[C@H](C)C[C@H](OC)[C@H]2O[C@@](O)(C(=O)C(=O)N3CCCC[C@H]3C(=O)O[C@H](/C(C)=C/[C@@H]3CC[C@@H](O)[C@H](OC)C3)[C@H](C)[C@@H](O)CC1=O)[C@H](C)C[C@@H]2OC = FALSE

Entry C[C@@H](N)[C@H]1CC[C@H](C(=O)Nc2ccncc2)CC1 : is its THP-1 cell loss no less than 40%? FALSE

Data provenance: the supplement of paper PMC7530171
